test system: human monoclonal antibody CRJA; assay type: binding
Provide the recorded Binding of CRJA to linear peptide (PEPSCAN-ELISA signal) for the entries that follow.
One number for each entry.

    sequence_input  reported_result
0  FRRLSHLRKLVPGFG              106
1  FVDERGLYKSLKGAC              116
2  DAHYKSVRTWNEILP              107
3  NVLIPEMQSSLLQQH               92
4  ACRAAYNWKMAGDPR               93

Hi team, please reply with Binding of CRJA to linear peptide (PEPSCAN-ELISA signal) for each item in this list.
1. RKHFRPTPDACRAAY
2. FNKTLMEADAHYKSV
3. MSCDIFTNSRGKRAS
4. LGLRLMDGTWVAMQT

Result block:
[57, 86, 71, 113]

Hi team, please reply with Binding of CRJA to linear peptide (PEPSCAN-ELISA signal) for each item in this list.
1. VLGLRLMDGTWVAMQ
2. CPNNLVVEDEGCTNL
3. TWVAMQTSNETKWCP
4. CKLKLCGVLGLRLMD
5. VSSTYCSTNHDYTIW

Result block:
[107, 75, 100, 88, 80]

====

tested on: human monoclonal antibody CR57; type: binding
test readout: Binding of CR57 (10 μg/ml) to looped/cyclic peptide (PEPSCAN-ELISA signal)
Answers are plain numbers.

As a guide, the following entries are already answered.
>>> df
    sequence_input  reported_result
0  VVEDEGCTNLSGFSY               79
1  VTTTFKRKHFRPTPD              101
2  ISPSVADLDPYDRSL               66
3  FKRKHFRPTPDACRA              148
4  TTKESLVIISPSVAD              114

Hi team, please reply with Binding of CR57 (10 μg/ml) to looped/cyclic peptide (PEPSCAN-ELISA signal) for each item in this list.
1. DIFTNSRGKRASKGS
2. TTTFKRKHFRPTPDA
3. SSTYCSTNHDYTIWM
4. KMAGDPRYEESLHNP
5. LSCPNNLVVEDEGCT
6. TGVVTEAENYTNFVG

Result block:
80
90
96
49
72
92

====

tested on: human monoclonal antibody CRJA; format: binding
Provide the recorded Binding of CRJA (10 μg/ml) to looped/cyclic peptide (PEPSCAN-ELISA signal) for the entries that follow.
One number for each entry.

As a guide, the following entries are already answered.
>>> print(df.to_string())
    sequence_input  reported_result
0  SRGKRASKGSETCGF               82
1  PYPDYRWLRTVKTTK               76
2  TTFKRKHFRPTPDAC               89
3  TEAENYTNFVGYVTT               76
4  TFKRKHFRPTPDACR              105
5  VGYILAIKMNGFTCT              105
6  LGPWSPIDIHHLSCP               72
7  NSRGKRASKGSETCG               71
8  ELKVGYILAIKMNGF               93
9  TILDKLGPWSPIDIH               86

Hi team, please reply with Binding of CRJA (10 μg/ml) to looped/cyclic peptide (PEPSCAN-ELISA signal) for each item in this list.
1. IYTILDKLGPWSPID
2. IFTNSRGKRASKGSE
3. TNLSGFSYMELKVGY
4. GPWSPIDIHHLSCPN
5. NWKMAGDPRYEESLH
6. KRKHFRPTPDACRAA

Result block:
1: 78; 2: 88; 3: 85; 4: 97; 5: 93; 6: 85

Hi team, please reply with Binding of CRJA (10 μg/ml) to looped/cyclic peptide (PEPSCAN-ELISA signal) for each item in this list.
1. SLHSRVFPSGKCSGV
2. RPTPDACRAAYNWKM
3. LHSRVFPSGKCSGVA

Result block:
97
96
117
